All values here come from the supplement of paper PMC8728848.

biological target: Gal(b1-4)Glc6S; test: glycan array binding signal (z-score within array); higher = stronger binding; details: glycan notation: IUPAC condensed, linker removed
Many of the other results were omitted from the sample, so the strongest signals are more common in it than they were.
test.readout: glycan array binding signal (z-score)
Answers are plain numbers.

binder	observed.measurement
Cohesin-hMARCO (Homo sapiens) (protein) LDDLDAVRIKVDTVNAKPGDTVRIPVRFSGIPSKGIANCDFVYSYDPNVLEIIEIEPGDIIVDPNPDKSFDTAVYPDRKIIVFLFAEDSGTGAYAITKDGVFATIVAKVKEGAPNGLSVIKFVEVGGFANNDLVEQKTQFFDGGANVGDTTEPATPTTPVTTPTTTDDLDAASVRIVGSSNRGRAEVYYSGTWGTICDDEWQNSDAIVFCRMLGYSKGRALYKVGAGTGQIWLDNVQCRGTESTLWSCTKNSWGHHDCSHEEDAGVECSVHHHHHH	-0.057

Ask: Consider the binder FBG3 (Homo sapiens), Q9H4M3 (protein) MAVGNINELPENILLELFTHVPARQLLLNCRLVCSLWRDLIDLVTLWKRKCLREGFITEDWDQPVADWKIFYFLRSLHRNLLHNPCAEEGFEFWSLDVNGGDEWKVEDLSRDQRKEFPNDQVKKYFVTSYYTCLKSQVVDLKAEGYWEELMDTTRPDIEVKDWFAARPDCGSKYQLCVQLLSSAHAPLGTFQPDPATIQQKSDAKWREVSHTFSNYPPGVRYIWFQHGGVDTHYWAGWYGPRVTNSSITIGPPLP and give its measured glycan array binding signal (z-score).
Reply: 0.065
